- System Tested: PHD1 (EGLN2) (Homo sapiens (Human))
- Protocol Summary: HIF-PH assay (14CO2 capture), PHD1 enzyme inhibition
- Assay type: biochemical
- Stated Conditions: Table 1; individual measurement; read-out: IC50 (μM) PHD1
Test Readout: IC50 (µM)

(a) CC(C)(CNC(=O)c1nc(C#N)c2cc(Cc3ccccc3)ccc2c1O)C(=O)O
(b) N#Cc1nc(C(=O)N[C@@H](CC(=O)O)c2ccccc2F)c(O)c2ccc(Oc3ccccc3)cc12
(c) N#Cc1nc(C(=O)N[C@H]2CCCC[C@H]2C(=O)O)c(O)c2ccc(Oc3ccccc3)cc12 (relative stereo)
(d) O=C(O)CCCCNC(=O)c1nc(-c2cncc(F)c2)c2cc(Oc3ccccc3)ccc2c1O
Asked: Could you list the above molecules by IC50, going from the biggest number down? Reply format: the labels, ordered as requested.
Given back: c, d, b, a
(c: 27.9 µM, d: 5.09 µM, b: 2.76 µM, a: 1.35 µM)

---

- System Tested: PHD2 (EGLN1) (Homo sapiens (Human), UniProt Q9GZT9)
- Sequence (Q9GZT9 whole entry): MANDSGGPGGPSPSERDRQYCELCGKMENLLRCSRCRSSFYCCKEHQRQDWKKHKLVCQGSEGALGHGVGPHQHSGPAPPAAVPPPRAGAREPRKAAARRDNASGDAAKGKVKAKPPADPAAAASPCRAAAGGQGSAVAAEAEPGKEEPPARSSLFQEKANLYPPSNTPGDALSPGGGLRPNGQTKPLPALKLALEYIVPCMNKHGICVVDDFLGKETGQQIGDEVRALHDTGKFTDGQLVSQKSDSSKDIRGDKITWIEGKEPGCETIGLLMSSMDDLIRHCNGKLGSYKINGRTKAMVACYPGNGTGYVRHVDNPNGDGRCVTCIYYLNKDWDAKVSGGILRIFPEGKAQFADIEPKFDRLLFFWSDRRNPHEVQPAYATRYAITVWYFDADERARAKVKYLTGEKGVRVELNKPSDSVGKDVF
- Protocol Summary: HIF-PH assay (14CO2 capture), PHD2 enzyme inhibition
- Type: biochemical
- Stated Conditions: Table 1; average of multiple independent measurements; read-out: IC50 (μM) PHD2 avg.
Test Readout: IC50 (µM)

(P) N#Cc1nc(C(=O)N[C@H](CCc2ccccc2)CC(=O)O)c(O)c2ccc(Oc3ccccc3)cc12 [Compound 107]
(Q) COc1ccccc1Oc1ccc2c(O)c(C(=O)NCC(C)(C)C(=O)O)nc(C#N)c2c1 [Compound 60]
(R) CC(C)CC(CC(=O)O)NC(=O)c1nc(C#N)c2cc(Oc3ccccc3)ccc2c1O (stereo not drawn) [Compound 66]
Asked: Order the above compounds by increasing IC50. Reply format: the labels, ordered as requested.
Given back: Q, P, R
(Q: 7.23 µM, P: 11.8 µM, R: 53.5 µM)

---

- System Tested: PHD1 (EGLN2) (Homo sapiens (Human))
- Protocol Summary: HIF-PH assay (14CO2 capture), PHD1 enzyme inhibition
- Assay type: biochemical
- Stated Conditions: Table 1; ratio of the IC50 of the compound for each enzyme
Test Readout: PHD2/PHD1

Example results:
[[record]]
molecule = "CC(C)(CNC(=O)c1nc(C#N)c2cc(Oc3cccc(Cl)c3)ccc2c1O)C(=O)O [Compound 39]"
val = 11

[[record]]
molecule = "Cc1cccc(C)c1Oc1ccc2c(C#N)nc(C(=O)NCCC(=O)O)c(O)c2c1 [Compound 109]"
val = 5

[[record]]
molecule = "C[C@](O)(CNC(=O)c1nc(C#N)c2cc(Oc3ccccc3)ccc2c1O)C(=O)O [Compound 73]"
val = 5

[[record]]
molecule = "CC(C)(CNC(=O)c1nc(C#N)c2cc(Sc3ccccc3)ccc2c1O)C(=O)O [Compound 121]"
val = 10

[[record]]
molecule = "N#Cc1nc(C(=O)NCC2(C(=O)O)CCC2)c(O)c2ccc(Sc3ccccc3)cc12 [Compound 154]"
val = 18

[[record]]
molecule = "N#Cc1nc(C(=O)NCC2(C(=O)O)CCC2)c(O)c2ccc(Oc3cccnc3)cc12 [Compound 28]"
val = 5


(1) N#Cc1nc(C(=O)NC2(CC(=O)O)CCCCC2)c(O)c2ccc(Oc3ccccc3)cc12 [Compound 90]
(2) O=C(NCC1(C(=O)O)CCOCC1)c1ncc2cc(Oc3ccccc3)ccc2c1O [Compound 15]
Asked: When the recorded PHD2/PHD1 values are compared, which is smaller: that of 1 or that of 2 ? // return label of chosen record
Given back: 2
(2: 5, 1: 8)

---

- System Tested: PHD1 (EGLN2) (Homo sapiens (Human), UniProt Q96KS0)
- Sequence (Q96KS0 whole entry): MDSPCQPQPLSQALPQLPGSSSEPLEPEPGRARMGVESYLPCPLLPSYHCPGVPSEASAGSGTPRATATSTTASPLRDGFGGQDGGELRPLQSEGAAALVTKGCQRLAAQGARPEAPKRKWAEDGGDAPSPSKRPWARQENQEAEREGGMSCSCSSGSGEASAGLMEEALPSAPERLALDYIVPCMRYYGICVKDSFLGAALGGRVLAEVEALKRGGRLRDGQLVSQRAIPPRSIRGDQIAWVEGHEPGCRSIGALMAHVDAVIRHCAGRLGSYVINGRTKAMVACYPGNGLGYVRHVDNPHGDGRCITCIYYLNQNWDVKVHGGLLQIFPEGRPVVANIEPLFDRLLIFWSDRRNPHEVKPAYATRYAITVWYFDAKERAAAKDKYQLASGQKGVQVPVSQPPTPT
- Protocol Summary: HIF-PH assay (14CO2 capture), PHD1 enzyme inhibition
- Format: biochemical
- Stated Conditions: Table 1; individual measurement; read-out: IC50 (μM) PHD1
Test Readout: IC50 (µM)

[[record]]
compound = "N#Cc1nc(C(=O)NC2(CC(=O)O)CCC2)c(O)c2ccc(Oc3ccccc3)cc12"
system_tested = "PHD1 (EGLN2) (Homo sapiens (Human), UniProt Q96KS0)"
val = 7.79

[[record]]
compound = "CC(C)(CNC(=O)c1ncc2cc(Cc3ccccc3)ccc2c1O)C(=O)O"
system_tested = "PHD1 (EGLN2) (Homo sapiens (Human), UniProt Q96KS0)"
val = 23.7

[[record]]
compound = "O=C(O)CCCCNC(=O)c1ncc2cc(Oc3ccccc3)ccc2c1O"
system_tested = "PHD1 (EGLN2) (Homo sapiens (Human), UniProt Q96KS0)"
val = 2.75

[[record]]
compound = "N#Cc1nc(C(=O)NC[C@H](O)C(=O)O)c(O)c2ccc(Oc3ccccc3)cc12"
system_tested = "PHD1 (EGLN2) (Homo sapiens (Human), UniProt Q96KS0)"
val = 0.11


(a) O=C(O)CCNC(=O)c1ncc2ccc(Oc3ccccc3)cc2c1O
(b) CC(CCC(=O)O)NC(=O)c1nc(C#N)c2cc(Oc3ccccc3)ccc2c1O (centres unmarked)
(c) Cc1ccccc1[C@H](CC(=O)O)NC(=O)c1nc(C#N)c2cc(Oc3ccccc3)ccc2c1O
(d) CC(C)(CNC(=O)c1nc(C#N)c2cc(Oc3c(F)cccc3F)ccc2c1O)C(=O)O
Asked: Could you please order the items by IC50, going from the lowest number to the highest? Reply format: the labels, ordered as requested.
Given back: d, b, c, a
(d: 0.93 µM, b: 1.38 µM, c: 5.26 µM, a: 23.7 µM)

---

- System Tested: PHD1 (EGLN2) (Homo sapiens (Human), UniProt Q96KS0)
- Protocol Summary: HIF-PH assay (14CO2 capture), PHD1 enzyme inhibition
- Type: biochemical
- Stated Conditions: Table 1; ratio of the IC50 of the compound for each enzyme
Test Readout: PHD2/PHD1

[[record]]
compound = "CCCC(CCC)(CNC(=O)c1nc(C#N)c2cc(Oc3ccccc3)ccc2c1O)C(=O)O"
test_readout = "PHD2/PHD1"
val = 7

[[record]]
compound = "COc1ccc(Oc2ccc3c(O)c(C(=O)NC(C)(C)CC(=O)O)nc(C#N)c3c2)cc1"
test_readout = "PHD2/PHD1"
val = 39

[[record]]
compound = "N#Cc1nc(C(=O)NCC2(C(=O)O)CCC2)c(O)c2ccc(Oc3ccccc3)cc12"
test_readout = "PHD2/PHD1"
val = 11

[[record]]
compound = "O=C(O)CCNC(=O)c1nc(-c2ccccc2)c2cc(Oc3ccccc3)ccc2c1O"
test_readout = "PHD2/PHD1"
val = 5

[[record]]
compound = "N#Cc1nc(C(=O)NC(CC(=O)O)c2ccc(Cl)cc2)c(O)c2ccc(Oc3ccccc3)cc12 (centres unmarked)"
test_readout = "PHD2/PHD1"
val = 5

[[record]]
compound = "Cc1ccccc1[C@H](CC(=O)O)NC(=O)c1nc(C#N)c2cc(Oc3ccccc3)ccc2c1O"
test_readout = "PHD2/PHD1"
val = 9

[[record]]
compound = "C[C@H](NC(=O)c1nc(C#N)c2cc(Oc3ccccc3)ccc2c1O)[C@H](C)C(=O)O"
test_readout = "PHD2/PHD1"
val = 39

[[record]]
compound = "COc1ccc(Oc2ccc3c(O)c(C(=O)NCCCCC(=O)O)ncc3c2)cc1"
test_readout = "PHD2/PHD1"
val = 6


(a) COc1ccc(Oc2ccc3c(O)c(C(=O)NC[C@H](O)C(=O)O)ncc3c2)cc1
(b) CC(C)(CNC(=O)c1nc(C#N)c2cc(Oc3ccccc3)ccc2c1O)C(=O)O
Asked: When the recorded PHD2/PHD1 values are compared, which is smaller: that of a or that of b ? // return label of chosen record
Given back: a

(P) CC(C)(CNC(=O)c1nc(C#N)c2cc(Oc3ccc(F)cc3Cl)ccc2c1O)C(=O)O
(Q) O=C(O)CCNC(=O)c1ncc2cc(Oc3ccccn3)ccc2c1O
Asked: When their PHD2/PHD1 values are compared, which is larger, P or Q ? // return label of chosen record
Given back: P
(P: 19, Q: 10)

(P) N#Cc1nc(C(=O)N[C@H]2CCCC[C@H]2C(=O)O)c(O)c2ccc(Oc3ccccc3)cc12 (relative stereo)
(Q) CC(C)(CNC(=O)c1nc(C#N)c2cc(Oc3ccc(Cl)cc3)ccc2c1O)C(=O)O
Asked: When their PHD2/PHD1 values are compared, which is larger, P or Q ? // return label of chosen record
Given back: Q
(Q: 13, P: 6)

---

- System Tested: PHD2 (EGLN1) (Homo sapiens (Human))
- Protocol Summary: HIF-PH assay (14CO2 capture), PHD2 enzyme inhibition
- Assay type: biochemical
- Stated Conditions: Table 1; individual measurement; read-out: IC50 (μM) PHD2
Test Readout: IC50 (µM)

[[record]]
compound = "CC(C)(CCNC(=O)c1nc(C#N)c2cc(Oc3ccccc3)ccc2c1O)C(=O)O"
units_text = "µM"
val = 2.11

[[record]]
compound = "CC(C)(C)OC(=O)N[C@@H](CNC(=O)c1nc(C#N)c2cc(Oc3ccccc3)ccc2c1O)C(=O)O"
units_text = "µM"
val = 112

[[record]]
compound = "CC(C)(CNC(=O)c1nc(C#N)c2cc(Oc3ccccc3)ccc2c1O)CC(=O)O"
units_text = "µM"
val = 13.6


(I) Cc1cccc(C)c1Oc1ccc2c(C#N)nc(C(=O)NCCCCC(=O)O)c(O)c2c1
(II) N#Cc1nc(C(=O)NC2(CC(=O)O)CCCCC2)c(O)c2ccc(Oc3ccccc3)cc12
(III) N#Cc1nc(C(=O)N[C@@H](CC(=O)O)c2ccccc2F)c(O)c2ccc(Oc3ccccc3)cc12
(IV) CN(C)C(=O)N[C@H](CCNC(=O)c1nc(C#N)c2cc(Oc3ccccc3)ccc2c1O)C(=O)O
Asked: Could you please order the items by IC50, going from the lowest number to the highest? Reply format: the labels, ordered as requested.
Given back: IV, III, II, I
(IV: 11 µM, III: 32.2 µM, II: 56.3 µM, I: 112 µM)

(a) CCCC(CNC(=O)c1nc(C#N)c2cc(Oc3ccccc3)ccc2c1O)C(=O)O (centres unmarked)
(b) O=C(NCC(C(=O)O)c1ccccc1)c1ncc2cc(Oc3ccccc3)ccc2c1O (centres unmarked)
Asked: When the recorded IC50 values are compared, which is smaller: that of a or that of b ? // return label of chosen record
Given back: a
